The measured values listed here are drawn from ChEMBL document CHEMBL3301361.

- assay overview: physchem
- conditions: octan-1-ol/water, pH 7.4
// boundary case: logD equal to 2 maps to Criterion not met; strictly smaller maps to Criterion met

| molecule | discrete label |
| --- | --- |
| Oc1ccc(-c2ccc(C3(O)CN4CCC3CC4)cc2)cc1 (stereo unspecified) | Criterion met |
| c1ccc(CCNCc2ccccc2)cc1 | Criterion met |
| O=C(c1ccc(C(=C2CCN(Cc3cscn3)CC2)c2cccc3cccnc23)cc1)N1CCC(O)CC1 | Criterion met |
| CSc1ccc(C(=O)C(C)(C)N2CCOCC2)cc1 | Criterion not met |
| Cc1c(Cl)cccc1S(=O)(=O)Nc1nc(CC(=O)N2CCN(C)CC2)cs1 | Criterion met |
| O=C(NCC12CC3CC(CC(C3)C1)C2)c1cc(N2CCNCC2)ccc1Cl | Criterion met |
| CCN(CC)C(=O)c1ccc(C(=C2CCNCC2)c2ccccc2OC)cc1 | Criterion met |
| O=C(Cc1ccc(OCc2ccccc2)cc1)NO | Criterion met |
| O=C(N[C@H]1CN2CCC1CC2)c1ccc(-c2ccccc2)s1 | Criterion met |
| O=C(C1CCN(c2nnc(-n3cccc3)s2)CC1)N1CCc2ccccc2C1 | Criterion not met |
| NC(=O)c1cncc(O[C@H]2C[C@H]3CC[C@@H](C2)N3Cc2ccccc2)n1 | Criterion met |
| CN(C)C(=O)C(CCN1CCC(O)(c2ccc(Cl)cc2)CC1)(c1ccccc1)c1ccccc1 [LOPERAMIDE] | Criterion not met |
| CNC1=Nc2ncccc2C(c2cc[nH]c2)=NC1c1cccs1 (stereo unspecified) | Criterion met |
| OC[C@H]1C[C@@H](n2nnc3c(N[C@@H]4C[C@H]4c4ccccc4)nc(SCCC(F)(F)F)nc32)[C@H](O)[C@@H]1O | Criterion not met |
| C[C@@H]1C2CCCC1(c1cccc(O)c1)CCN2C (stereo partly specified) | Criterion met |
| COc1nc(N)nc2c1ncn2[C@@H]1O[C@H](CO)[C@@H](O)[C@H]1O | Criterion met |
| NC(=O)C[S+]([O-])C(c1ccccc1)c1ccccc1 (stereo unspecified) | Criterion met |
| COc1ccc2c3c1OC1C(O)C=CC4C(C2)N(C)CCC341 (stereo unspecified) | Criterion met |
| NC(=O)c1cccc(O[C@@H]2C[C@H]3CC[C@@H](C2)N3Cc2ccccc2)c1 | Criterion met |
| CS(=O)(=O)N1CC[C@H](N(Cc2ccccc2Cl)c2ccc(C#N)c(Cl)c2)C1 | Criterion not met |
| Oc1cc(Cl)cc(Cl)c1 | Criterion not met |
| Cc1ccc(OC(=O)N2CCN3CCC2CC3)cc1 | Criterion met |
| C[C@H]1CN(Cc2cc(Cl)ccc2OCC(=O)O)CCN1C(=O)Cc1cccc(Cl)c1 | Criterion met |
| Nc1ccccc1[N+](=O)[O-] | Criterion met |
| c1ccc2ncccc2c1 | Criterion not met |
| CCOC(=O)Nc1cccc([C@@H](c2ccc(C(=O)N(C)CC)cc2)N2CCN(Cc3nc[nH]c3C)CC2)c1 | Criterion not met |
| CC(C)(C)OC(=O)N1CCN(c2ncc(OCc3ccncc3C#N)cn2)CC1 | Criterion not met |
| Oc1cc(-c2ccccc2)nc2ccnn12 | Criterion met |
| CC(O)c1ccc2c(c1)N(CCN1CCC(NCc3ccc4c(n3)NC(=O)CO4)CC1)C(=O)CO2 (stereo unspecified) | Criterion met |
| C[C@]12N[C@H](Cc3ccccc31)c1ccccc12 | Criterion met |
| CCN(CC)C(=O)N[C@H]1C[C@@H]2c3cccc4[nH]cc(c34)C[C@H]2N(C)C1 [TERGURIDE] | Criterion not met |
| Nc1ncnc2oc(-c3ccoc3)c(-c3ccco3)c12 | Criterion not met |
| COc1ccc2c(c1)[nH]c1c(C)nccc12 | Criterion not met |
